Test: PAMPA (parallel artificial membrane permeability assay)
Assay type: in vitro ADME
Conditions: PAMPA; membrane permeation rate (Pe); 50 mM MOPSO buffer pH 6.5 with 5.0% glycocholic acid, 37° C., 18 hours; read-out: iPAMPA Pe
Positions of bridges follow the written chain, without caps; N, C: chain ends. Non-standard residues stand in square brackets, D forms with d. Residues, ends and D or L forms follow the SMILES beside them. *: point of attachment. NMeF = CN[C@@H](Cc1ccccc1)C(=O)O; NMeL = CN[C@@H](CC(C)C)C(=O)O; NMeA = CN[C@@H](C)C(=O)O; Piperidide = C1CCN(*)CC1; Sar = CNCC(=O)O
Papp at 18 hours, 50 µM: recorded values
reported-metric: Papp at 18 hours, 50 µM (×10⁻⁶ cm/s)

| compound | scale-unit | meas-value |
| --- | --- | --- |
| CC(C)C[C@H](NC(=O)CN(C)C(=O)[C@@H]1CC(=O)N[C@H](C)C(=O)N[C@@H](C(C)C)C(=O)N(C)[C@@H](Cc2ccccc2)C(=O)N(C)[C@@H](CC(C)C)C(=O)N(C)[C@@H](C)C(=O)N[C@@H]([C@@H](C)O)C(=O)N[C@@H](Cc2ccccc2)C(=O)N1)C(=O)N1CCCCC1 [DP-571] ([dA]V[NMeF][NMeL][NMeA]TFD[Sar]L-Piperidide; lactam N-8) | ×10⁻⁶ cm/s | 23 |
| CC[C@H](C)[C@H](NC(=O)[C@H](CC(C)C)N(C)C(=O)[C@H](CC(C)C)NC(=O)[C@H](C)N(C)C(=O)[C@@H]1CC(=O)N[C@H](C(C)C)C(=O)N(C)[C@@H](CC(C)C)C(=O)N(C)[C@@H](CC(C)C)C(=O)N[C@@H](C)C(=O)N[C@@H](Cc2ccccc2)C(=O)N[C@@H]([C@@H](C)O)C(=O)N[C@@H](CC(C)C)C(=O)N(C)[C@@H](Cc2ccccc2)C(=O)N(C)[C@@H](CC(C)C)C(=O)N1)C(=O)N1CCCCC1 [DP-944] ([dV][NMeL][NMeL]AFTL[NMeF][NMeL]D[NMeA]L[NMeL]I-Piperidide; lactam N-10) | ×10⁻⁶ cm/s | 0.1 |
| CC[C@H](C)[C@H](NC(=O)[C@H](CC(C)C)N(C)C(=O)CN(C)C(=O)[C@@H](NC(=O)[C@@H]1CC(=O)N[C@H](C(C)C)C(=O)N[C@@H](C)C(=O)N[C@@H]([C@@H](C)O)C(=O)N(C)[C@@H](C)C(=O)N[C@@H](Cc2ccccc2)C(=O)N(C)[C@@H](CC(C)C)C(=O)N(C)[C@@H](Cc2ccccc2)C(=O)N(C)[C@@H](CC(C)C)C(=O)N1)C(C)C)C(=O)N1CCCCC1 [DP-939] ([dV]AT[NMeA]F[NMeL][NMeF][NMeL]DV[Sar][NMeL]I-Piperidide; lactam N-9) | ×10⁻⁶ cm/s | 3.6 |
